# ASSAY NAME: Pharmacokinetics studies in mice
# Format: in vivo, CD-1 mice
# CONDITION PARAMETERS: CD-1; mouse plasma; PO 5 mg/Kg
MEASURED QUANTITY: half-life (h)
# value in h; strip the unit string

Task: Could you please provide reported half-life for CN(C)C/C=C/C(=O)Nc1cc2c(Nc3ccc(F)c(Cl)c3)ncnc2cc1OC[C@H]1[C@@H]2COC[C@@H]21 ? Thanks!
Result: 11.1

###

# ASSAY NAME: Pharmacokinetics studies in rats
# Assay type: in vivo, Sprauge Dawley rats
# CONDITION PARAMETERS: male, Sprague-Dawley; rat plasma; IV 1 mg/Kg
MEASURED QUANTITY: Cmax (ng/mL)
# value in ng/mL; strip the unit string

Task: Could you please provide reported Cmax for CN(C)C/C=C/C(=O)Nc1cc2c(Nc3ccc(F)c(Cl)c3)ncnc2cc1O[C@H]1CCOC1 [afatinib, reference compound] ? Thanks!
Result: 55.6

Task: Could you please provide reported Cmax for CN(C)C/C=C/C(=O)Nc1cc2c(Nc3ccc(F)c(Cl)c3)ncnc2cc1OC[C@H]1[C@@H]2COC[C@@H]21 ? Thanks!
Result: 59.3

These entries and their values trace back to patent US9187459B2.
